- Test system: SK-MEL-28 melanoma
- TEST DETAILS: NCI-60 one-dose screen, 48 h (100 = growth as untreated, 0 = no growth, -100 = all killed)
- PROTOCOL CONDITIONS: 10 µM
Compounds without any hit were thinned out: in the full panel of roughly 83,000, 20% have a hit.
REPORTED METRIC: growth (%)
Give just the number in %; leave the unit off.

Asked: Provide the documented growth with SK-MEL-28 melanoma as the system for CCN(Cc1ccccc1)c1ccc(/C=C2\COc3ccccc3C2=O)cc1
Given back: 99.9

Asked: Record lookup: for SK-MEL-28 melanoma, what growth belongs to CC(=O)/C=C/c1ccc(OCc2ccc(Cl)cc2)cc1 ?
Given back: 112

Asked: growth of CC(=O)/C=C/c1ccc(N(C)Cc2ccc(C(C)(C)C)cc2)cc1 on SK-MEL-28 melanoma?
Given back: 92.5

Asked: Form: Entry = COc1ccc(C(=O)/C=C/c2ccc(OCc3ccc(Cl)cc3)cc2)cc1OC | System = SK-MEL-28 melanoma | growth = ____
Given back: 103

Asked: Under SK-MEL-28 melanoma: growth value of O=C(/C=C/c1cccc(Oc2ccc(Cl)cc2)c1)c1ccccc1 ?
Given back: 101

---

- System: 786-0 renal
- TEST DETAILS: NCI-60 one-dose screen, 48 h (100 = growth as untreated, 0 = no growth, -100 = all killed)
- PROTOCOL CONDITIONS: 10 µM unless noted
- Method: Cells are grown in 96 well plates and exposed to the test compound for 48 hours. Compounds are tested at a single concentration, which is 10^-5 M for most compounds. The reported endpoint is percent growth (GI% or GIPRCNT), where numbers from 0 - 100% represent growth inhibition, and numbers from -100% - 0 represent cell death. For example, a value of 40 represents 60% growth inhibition. A value of 0 means no net growth occurred over the course of the experiment. […]
Compounds without any hit were thinned out: in the full panel of roughly 83,000, 20% have a hit.
Note to self: class = bucket of growth, per low (below 30%), medium (30% to below 90%), high (90% or more)

Asked: Lab note: sort Cc1ccccc1SSc1ccccc1C into the matching growth band.
Given back: high

Asked: Sort into band: CCNC(=S)n1nc(SC)c(C(=O)OCC)c1N
Given back: high

Asked: Which growth band matches CN1CCN(Cc2ccc(NC(=O)c3nc4ccc5[nH]ncc5c4c4c3CCCC4)cc2C(F)(F)F)CC1 ?
Given back: low

Asked: Which growth band matches COc1cc2nc3cc([N+](=O)[O-])ccc3c(NCCNCC(C)(C)O)c2cc1OC ?
Given back: low

Asked: In plain terms, what class is O=C(Nc1ccc2ncsc2c1)c1csc(Nc2ccc3[nH]ncc3c2)n1 ?
Given back: medium

Asked: Class for C/C=C(\C)C(=O)N[C@H]1CC[C@]2(C)C3CC[C@@]4(C)C(CC[C@@H]4C(C)N(C)C)C3CCC2[C@H]1OC(C)=O (some centres undefined) ?
Given back: low

Asked: Determine which band this compound sits in: O=[N+]([O-])c1ccc2[nH]c3nccc(NCc4cccc(Cl)c4)c3c2c1
Given back: medium

Asked: Just checking, what class would you give CC1=C2[C@@H](CC1)[C@]1(C)O[C@@](C3CC3)(C[C@H]1OC(=O)CO)[C@H]2OC(=O)/C=C/c1ccccc1 here?
Given back: medium

Asked: Class? Entry: Nc1nc(Nc2ccc(F)cc2)nn1C(=O)c1cc(Cl)ccc1Cl
Given back: medium

Asked: In plain terms, what class is O=C1/C(=C/c2ccccc2)CN(C(=O)C(Cl)Cl)C/C1=C\c1ccccc1 ?
Given back: low

Asked: In plain terms, what class is CC(=NCc1ccccc1)c1ccc(O)cc1O ?
Given back: high

Asked: # classify by growth band: O=C(/C=C/C12c3ccccc3C(c3ccccc31)C1C(=O)NC(=O)C12)c1ccncc1 (centres undefined)
Given back: low

Asked: Hello team, could you let me know which band the following compound falls into: C=C1C(=O)O[C@@H]2[C@H]3[C@H](COC(C)=O)[C@@H](OC(C)=O)C[C@H]3C(=C)[C@@H](O)C[C@@H]12
Given back: medium

Asked: Sort O=C1/C(=C/c2cn(-c3ccccc3)nc2-c2ccccc2)SC(=S)N1c1ccccc1 into one of the categories.
Given back: high

Asked: Class label required: N#C/C(=C\c1ccc(Br)cc1)n1nnc2c(F)cccc21
Given back: low

Asked: Hi, small favor: classify C[N+]1=C(/C=C\C=C\c2ccccc2)C(C)(C)c2ccccc21 by its growth when you get a moment.
Given back: medium

Asked: Where would C=C(C)[C@@H]1CC[C@]2(C(=O)N3CCN(C)CC3)CC[C@]3(C)[C@H](CC[C@@H]4[C@@]5(C)CC(CCCNC(C)=O)(CCCNC(C)=O)[C@H](OC(C)=O)C(C)(C)[C@@H]5CC[C@]43C)[C@@H]12 land among the classes by reported growth?
Given back: high

Provenance of the data: PubChem BioAssay (NCI)
